- method-summary: Inhibition of RNase H activity of HIV-1 reverse transcriptase p66/p51 C280A mutant using 18 nucleotide 3'-fluorescein-labeled RNA/18 nucleotide 5'-dabsyl-labeled DNA hybrid as substrate after 10 mins by fluorescence spectrometric analysis
- Set-up: species or system Human immunodeficiency virus 1
quantity-name: IC50

Cc1sc2nc(-c3cc4ccccc4[nH]3)[nH]c(=O)c2c1C ... > 50 µM
Cc1sc2nc(-c3ccc(C(F)(F)F)cc3)[nH]c(=O)c2c1C ... > 50 µM

Kindly review the next compound as well.
Q: Using known records, supply IC50 for `O=C(O)c1ccc(-c2nc3sc4c(c3c(=O)[nH]2)CCCCC4)cc1`
Result: > 50 µM
